Data provenance: PubChem BioAssay (EPA / NIEHS)

- Read-out: Matrix Metallopeptidase 1 (MMP1), MMP1 (gene 4312)
- EXPERIMENT_SUMMARY: BSK_hDFCGF_MMP1: BioMAP Diversity Plus: hDFCGF Assay for Matrix Metallopeptidase 1 (MMP1) Biomarker Activity (AID 2283064)
- RUN_CONDITIONS: primary human foreskin fibroblasts; actives raise or lower the signal
Activity calls are given as the source filed them. Rule for the calls: active = hit-call score of the fitted dose curve at least 0.9, where 1 is the maximum; inactive = score below 0.9.
Tick one outcome: y = active, n = inactive

### Prompt Can you look up the reported call for Cc1c(F)c(F)c(COC(=O)C2C(/C=C(\Cl)C(F)(F)F)C2(C)C)c(F)c1F (centres undefined) for me?
### Response y

### Prompt Subsequent entry: CCON=C(CC)C1=C(O)CC(c2c(C)cc(C)cc2C)CC1=O (centres undefined)
### Response n

### Prompt Subsequent entry: C#CCOS(=O)OC1CCCCC1Oc1ccc(C(C)(C)C)cc1 (centres undefined)
### Response y

### Prompt Subsequent entry: Oc1ccccc1-c1ccccc1
### Response n

### Prompt Subsequent entry: CCCC1COC(Cn2cncn2)(c2ccc(Cl)cc2Cl)O1 (centres undefined)
### Response n

### Prompt Subsequent entry: COC(=O)C=C(C)OP(=O)(OC)OC
### Response n

### Prompt Subsequent entry: CN(C)C(=S)SSC(=S)N(C)C
### Response y

### Prompt Subsequent entry: CC1=C(C(=O)Nc2ccccc2)SCCO1
### Response n

### Prompt Subsequent entry: CNC(=S)S
### Response y
